- Test system: Z-138 cells
- assayMethodText: Z-138 Methylation Assay (In Cell Western for symmetric di-methyl arginine and DNA content)
- Type: cell-based
- conditions: Homo sapiens, Table D-2, read-out: ICW EC50
measurementLabel: EC50

Cn1cnc2cnc(-c3cccc(OCC(O)CN4CCc5ccccc5C4)c3)nc21 (centres unmarked) | 101 to 1000 nM
O=C(Cn1ccc2cnc(-c3ccnc(NCC(O)CN4CCc5ccccc5C4)c3)nc21)N1CCOCC1 (centres unmarked) | < 100 nM
O[C@H](COc1cccc(-c2cccc3cccnc23)c1)CN1CCc2ccccc2C1 | 1000 to 10000 nM
Cn1nccc1C(=O)Nc1cccc(OCC(O)CN2CCc3ccccc3C2)c1 (centres unmarked) | 1000 to 10000 nM
O=C(c1ccc(Cn2nccc2-c2ccc(OCC(O)CN3CCc4ccccc4C3)cc2)cc1)N1CCCC1 (centres unmarked) | 1000 to 10000 nM
OC(COc1cccc(-c2ncc3ccn(C4CCNCC4)c3n2)c1)CN1CCc2ccccc2C1 (centres unmarked) | 101 to 1000 nM
NC(=O)c1cccc(-c2cccc(OCC(O)CN3CCc4ccccc4C3)c2)c1 (centres unmarked) | 1000 to 10000 nM
OC(COc1cccc(-c2ccc3cn[nH]c3c2)c1)CN1CCc2ccccc2C1 (centres unmarked) | 1000 to 10000 nM
O=C(c1cccc(-c2cccc(OCC(O)CN3CCc4ccccc4C3)c2)c1)N1CCCC1 (centres unmarked) | 1000 to 10000 nM
OC(COc1cccc(-c2ccccc2)c1)CN1CCc2ccccc2C1 (centres unmarked) | 1000 to 10000 nM
Oc1cccc(-c2cccc(OCC(O)CN3CCc4ccccc4C3)c2)c1 (centres unmarked) | 1000 to 10000 nM
Cn1cc2ccc(-c3cccc(OCC(O)CN4CCc5ccccc5C4)c3)cc2n1 (centres unmarked) | > 20000 nM
Cn1cnc2ccc(-c3cccc(OCC(O)CN4CCc5ccccc5C4)c3)cc21 (centres unmarked) | 101 to 1000 nM
COc1cc(Cl)cc(-c2cccc(OCC(O)CN3CCc4ccccc4C3)c2)c1 (centres unmarked) | > 20000 nM
OC(COc1cccc(-c2cc(OC(F)(F)F)ccc2Cl)c1)CN1CCc2ccccc2C1 (centres unmarked) | 10000 to 40000 nM
OC(COc1cccc(-c2ccccc2Cl)c1)CN1CCc2ccccc2C1 (centres unmarked) | 1000 to 10000 nM
Cn1cnc2ccc(-c3cccc(OC[C@H](O)CN4CCc5ccccc5C4)c3)cc21 | 101 to 1000 nM

Numbers sourced from patent US20150344457A1.
